Origin of the recorded values: ChEMBL document CHEMBL5584274

# Protocol text: Toxicity in male Balb/c nude mouse xenografted with human Eca-109 cells assessed as calcification in liver at 2 mg/kg, iv irradiated with 12 J/cm2 650 nm laser light and measured after 14 days by H and E staining based microscopic analysis
# Format: organism-based
# Condition details: in vivo, 336 h, time 14 day

Line notation | Activity
Oc1ccc(-c2c3nc(c(-c4ccc(O)c(F)c4)c4[nH]c(c(-c5ccc(O)c(F)c5)c5nc(c(-c6ccc(O)c(F)c6)c6[nH]c2c2ccccc62)-c2ccccc2-5)c2ccccc42)-c2ccccc2-3)cc1F | Toxic
OCCCOc1ccc(-c2c3nc(c(-c4ccc(OCCCO)cc4)c4[nH]c(c(-c5ccc(OCCCO)cc5)c5nc(c(-c6ccc(OCCCO)cc6)c6[nH]c2c2ccccc62)-c2ccccc2-5)c2ccccc42)-c2ccccc2-3)cc1 | Non-Toxic
COc1ccc(-c2c3nc(c(-c4ccc(OC)c(O)c4)c4[nH]c(c(-c5ccc(OC)c(O)c5)c5nc(c(-c6ccc(OC)c(O)c6)c6[nH]c2c2ccccc62)-c2ccccc2-5)c2ccccc42)-c2ccccc2-3)cc1O | Toxic
OCCOc1ccc(-c2c3nc(c(-c4ccc(OCCO)cc4F)c4[nH]c(c(-c5ccc(OCCO)cc5F)c5nc(c(-c6ccc(OCCO)cc6F)c6[nH]c2c2ccccc62)-c2ccccc2-5)c2ccccc42)-c2ccccc2-3)c(F)c1 | Non-Toxic
